molecular target: GST-Xa-hAAK1 (Homo sapiens); construct: made in house; experiment: AAK1 Kinase Assay; format: biochemical; settings: IC50 (nM), ATP 22 μM; 3 hours at room temperature; Caliper LabChip 3000
Cut-off 500 nM on IC50: below means 1, at or above means -1.

[in] Determine if COc1cc(NC(=O)[C@@H](CC(C)C)NCc2csnn2)ccc1-c1cnco1 [Example 67] shows IC50 strictly lower than 500 nM.
[out] 1

---
[in] Determine if NC(C(=O)Nc1ccc(-c2ccncc2)cc1)C1CCCCC1C(F)(F)F (mixture of isomers) [Example 122] shows IC50 strictly lower than 500 nM.
[out] 1

[in] Determine if COc1cc(NC(=O)C2NCCC2C(C)C)ccc1-c1cnco1 (single isomer, unassigned) [Example 39] shows IC50 strictly lower than 500 nM.
[out] 1

[in] Determine if CCc1cc(NC(=O)[C@H](N)CC(C)C)ccc1-c1cnco1 [Example 14] shows IC50 strictly lower than 500 nM.
[out] 1

[in] Determine if COc1cc(NC(=O)[C@H](N)CC(C)(C)C)ccc1-c1cnco1 [Example 74] shows IC50 strictly lower than 500 nM.
[out] -1

[in] Determine if COc1cc(NC(=O)C2NCCCC2C(C)C)ccc1-c1cnco1 (single isomer, unassigned) [Example 87] shows IC50 strictly lower than 500 nM.
[out] 1

[in] Determine if CC(C)C[C@@H](N)C(=O)Nc1ccc(-c2ccncc2)cc1-c1cn[nH]c1 [Example 112] shows IC50 strictly lower than 500 nM.
[out] -1

[in] Determine if COc1cc(NC(=O)[C@H](N)[C@H](C)O)ccc1-c1cnco1 [Example 77] shows IC50 strictly lower than 500 nM.
[out] -1

[in] Determine if COc1cc(NC(=O)C2CNC(=O)N2)ccc1-c1cnco1 (centres unmarked) [Example 57] shows IC50 strictly lower than 500 nM.
[out] -1

[in] Determine if COc1cc(NC(=O)C(N)C2CCCCC2C)ccc1-c1cnco1 (mixture of isomers) [Example 93] shows IC50 strictly lower than 500 nM.
[out] 1

[in] Determine if CC(C)C[C@@H](N)C(=O)Nc1ccc(-c2ccncc2)cc1 [Example 116] shows IC50 strictly lower than 500 nM.
[out] 1

[in] Determine if COc1cc(NC(=O)[C@H](N)CC(C)C)ccc1-c1ccnc(Cl)c1 [Example 43] shows IC50 strictly lower than 500 nM.
[out] 1

[in] Determine if COc1cc(NC(=O)C2NCCCC2C(C)C)ccc1-c1cnco1 (centres unmarked) [Example 85] shows IC50 strictly lower than 500 nM.
[out] 1

[in] Determine if CC(C)C[C@@H](N)C(=O)Nc1ccc(-c2ccncc2)cc1C#N [Example 114] shows IC50 strictly lower than 500 nM.
[out] 1

[in] Determine if COc1cc(NC(=O)[C@@H]2CCCN2C(=O)C(C)C)ccc1-c1cnco1 [Example 82] shows IC50 strictly lower than 500 nM.
[out] -1

###

biological target: GST-Xa-hAAK1 (Homo sapiens, UniProt Q2M2I8); construct: made in house; experiment: AAK1 Kinase Assay; type: biochemical; conditions: IC50 (nM), ATP 22 μM; 3 hours at room temperature; Caliper LabChip 3000
Sequence (Q2M2I8 whole entry): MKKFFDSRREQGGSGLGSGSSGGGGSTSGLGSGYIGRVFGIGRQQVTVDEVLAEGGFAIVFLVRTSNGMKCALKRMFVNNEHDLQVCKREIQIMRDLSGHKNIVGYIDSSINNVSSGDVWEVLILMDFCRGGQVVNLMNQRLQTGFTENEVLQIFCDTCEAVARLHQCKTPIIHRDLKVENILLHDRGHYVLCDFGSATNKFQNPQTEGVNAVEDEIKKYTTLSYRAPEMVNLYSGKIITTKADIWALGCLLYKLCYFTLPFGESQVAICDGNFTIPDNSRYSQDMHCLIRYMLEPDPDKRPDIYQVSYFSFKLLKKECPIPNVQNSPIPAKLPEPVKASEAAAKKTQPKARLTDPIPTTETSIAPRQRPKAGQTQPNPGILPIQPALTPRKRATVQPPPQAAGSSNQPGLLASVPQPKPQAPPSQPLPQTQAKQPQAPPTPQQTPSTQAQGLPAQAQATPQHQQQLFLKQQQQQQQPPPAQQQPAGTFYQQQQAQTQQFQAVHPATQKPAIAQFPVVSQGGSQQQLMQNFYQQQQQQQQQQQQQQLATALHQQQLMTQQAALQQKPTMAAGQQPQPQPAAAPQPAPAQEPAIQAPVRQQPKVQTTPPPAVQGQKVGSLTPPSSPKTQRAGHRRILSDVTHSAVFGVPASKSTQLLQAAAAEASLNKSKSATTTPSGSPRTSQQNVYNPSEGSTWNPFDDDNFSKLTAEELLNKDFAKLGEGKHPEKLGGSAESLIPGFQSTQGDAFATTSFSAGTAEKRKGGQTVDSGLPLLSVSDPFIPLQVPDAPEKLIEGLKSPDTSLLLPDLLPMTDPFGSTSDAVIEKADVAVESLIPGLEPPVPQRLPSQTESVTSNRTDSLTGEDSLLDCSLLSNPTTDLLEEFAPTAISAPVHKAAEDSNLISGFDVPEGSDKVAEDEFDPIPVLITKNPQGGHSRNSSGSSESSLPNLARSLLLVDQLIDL
Cut-off 300 nM on IC50: below means Condition met, at or above means Condition not met.

Example entries begin here.
[in] Determine if CC[C@@H](C)[C@@H](N)C(=O)Nc1ccc(-c2cnco2)c(OC)c1 shows IC50 strictly lower than 300 nM.
[out] Condition met

[in] Determine if CC(C)C[C@@H](N)C(=O)Nc1cc(F)c(-c2cnco2)cc1F shows IC50 strictly lower than 300 nM.
[out] Condition not met

[in] Determine if COc1cc(NC(=O)[C@@H](CC(C)C)NS(C)(=O)=O)ccc1-c1cnco1 shows IC50 strictly lower than 300 nM.
[out] Condition met

[in] Determine if COc1cc(NC(=O)[C@H](N)CC(C)C)ccc1-c1ccncn1 shows IC50 strictly lower than 300 nM.
[out] Condition not met

[in] Determine if CC1CCCCC1C(N)C(=O)Nc1ccc(-c2ccncc2)cc1 (mixture of isomers) shows IC50 strictly lower than 300 nM.
[out] Condition met

[in] Determine if COc1cc(NC(=O)[C@H](N)CC(C)C)ccc1-n1ccnc1 shows IC50 strictly lower than 300 nM.
[out] Condition not met

[in] Determine if O=C(Nc1ccc(-c2ccncc2)cc1)C1NCCCC1C(F)(F)F (mixture of isomers) shows IC50 strictly lower than 300 nM.
[out] Condition met

[in] Determine if CCCS(=O)(=O)N[C@H](CC(C)C)C(=O)Nc1ccc(-c2cnco2)c(OC)c1 shows IC50 strictly lower than 300 nM.
[out] Condition not met

[in] Determine if CC(C)C[C@@H](N)C(=O)Nc1ccc(-c2ccncc2)cc1-c1nn[nH]n1 shows IC50 strictly lower than 300 nM.
[out] Condition met

[in] Determine if CCOc1cc(NC(=O)[C@H](N)CC(C)C)ccc1-c1cnco1 shows IC50 strictly lower than 300 nM.
[out] Condition met

---
[in] Determine if COc1cc(NC(=O)[C@H](N)CC(C)C)ccc1-c1cn[nH]c1 shows IC50 strictly lower than 300 nM.
[out] Condition met

[in] Determine if CC(C)C[C@@H](N)C(=O)Nc1ccc(-c2cnco2)c(C(F)(F)F)c1 shows IC50 strictly lower than 300 nM.
[out] Condition not met

[in] Determine if COc1cc(NC(=O)[C@@H](N)CC(C)C)ccc1-c1cnco1 shows IC50 strictly lower than 300 nM.
[out] Condition met

[in] Determine if COc1cc(NC(=O)C(N)CC(C)C)ccc1-c1ccnc(N)c1 (centres unmarked) shows IC50 strictly lower than 300 nM.
[out] Condition met

Origin of values: patent US10253027B2
